- system.tested: Metacaspase-2 (Trypanosoma brucei, UniProt Q8T8E7)
- test: Inhibition of Trypanosoma brucei MAC2
measured.endpoint: IC50 (µM)
Answers are plain numbers, in µM.

N=C(N)NCCC[C@H](NC(=O)OCc1ccccc1)C(=O)c1nccs1 : 2.2

Provide IC50 for all items below, preserving their order.
1. N=C(N)NCCC[C@H](NC(=O)OCc1ccccc1)C(=O)c1nc2ccccc2s1
2. CC(C)CC(NC(=O)OCc1ccccc1)C(=O)N[C@@H](CCCNC(=N)N)C(=O)c1nc2ccccc2s1 (stereo partly drawn)

[0.6, 1.4]

// IC50 value for N=C(N)NCCC[C@H](NC(=O)OCc1ccccc1)C(=O)c1ccccn1 : 62

###

- system.tested: Metacaspase-2 (Trypanosoma brucei, UniProt Q8T8E7)
- Sequence (Q8T8E7 whole entry): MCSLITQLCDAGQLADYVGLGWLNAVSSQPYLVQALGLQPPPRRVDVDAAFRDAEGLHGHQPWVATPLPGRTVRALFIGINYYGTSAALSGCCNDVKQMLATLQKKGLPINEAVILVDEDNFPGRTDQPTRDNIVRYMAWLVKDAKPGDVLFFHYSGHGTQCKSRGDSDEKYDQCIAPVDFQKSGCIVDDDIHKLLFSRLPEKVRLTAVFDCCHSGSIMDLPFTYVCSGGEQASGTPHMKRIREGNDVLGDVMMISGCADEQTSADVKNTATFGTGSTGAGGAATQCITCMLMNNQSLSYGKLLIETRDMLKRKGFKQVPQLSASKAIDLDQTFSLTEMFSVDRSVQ
measured.endpoint: pIC50
Give bare numbers, as −log10 of the molar value.

Examples with their reported pIC50 follow.
N#C[C@H](CCCNC(=N)N)NC(=O)OCc1ccccc1 : 5.72
Cn1c(C(=O)[C@H](CCCNC(=N)N)NC(=O)OCc2ccccc2)nc2ccccc21 : 4.42
N=C(N)NCCC[C@@H](/C=C/S(=O)(=O)c1ccccc1)NC(=O)OCc1ccccc1 : 5.41
CC(C)C(NC(=O)OCc1ccccc1)C(=O)N[C@@H](CCCNC(=N)N)C(=O)c1nc2ccccc2s1 (stereo partly specified) : 5.96
NC(N)=NCCCC[C@H](NC(=O)OCc1ccccc1)C(=O)c1nc2ccccc2s1 : 5.40

Here is another compound to look at.
// recorded pIC50 for NCCCC[C@H](NC(=O)OCc1ccccc1)C(=O)c1nc2ccccc2s1 : 5.80

###

- Test system: MRC5
- test: Cytotoxicity against human MRC5 cells
- Assay type: cell-based
measured.endpoint: pIC50
One number for each entry, as −log10 of the molar value.

The examples below pair each entry with its known result.
NC(N)=NCCCC[C@H](NC(=O)OCc1ccccc1)C(=O)c1nc2ccccc2s1 : 4.72
N#CCN(CCCCN1CCN(C(c2ccc(F)cc2)c2ccc(F)cc2)CC1)C(=O)OCc1ccccc1 : 4.95

I need pIC50 for every entry listed below, if you could help.
1. CC(C)C(NC(=O)OCc1ccccc1)C(=O)N[C@@H](CCCNC(=N)N)C(=O)c1nc2ccccc2s1 (stereo not given in full)
2. NCCCC[C@H](NC(=O)OCc1ccccc1)C(=O)c1nc2ccccc2s1

[4.49, 4.70]

###

Please respond with reported IC50 for every item in the list.
- Tested on: Plasmodium falciparum
- test: Antiparasitic activity against Plasmodium falciparum ring stage and schizont
- Type: functional, organism-based
Give bare numbers, in µM.

Some solved cases for reference:
CC(C)C(NC(=O)OCc1ccccc1)C(=O)N[C@@H](CCCNC(=N)N)C(=O)c1nc2ccccc2s1 (some centres undefined) : 3.3
NC(N)=NCCCC[C@H](NC(=O)OCc1ccccc1)C(=O)c1nc2ccccc2s1 : 5.6
N#CCN(CCCCN1CCCCC1)C(=O)OCc1ccccc1 : 6.9
N#C[C@H](Cc1ccc(N)cc1)NC(=O)OCc1ccccc1 : 16.6
N#CCN(C(=O)OCc1ccccc1)C1CCNCC1 : 28

Hi there! I need IC50 for each item below, if you can.
1. CC(C)CC(NC(=O)OCc1ccccc1)C(=O)N[C@@H](CCCNC(=N)N)C(=O)c1nc2ccccc2s1 (some centres undefined)
2. N=C(N)NCCC[C@@H](/C=C/S(=O)(=O)c1ccccc1)NC(=O)OCc1ccccc1
3. NCCCC[C@H](NC(=O)OCc1ccccc1)C(=O)c1nc2ccccc2s1
4. Cn1c(C(=O)[C@H](CCCNC(=N)N)NC(=O)OCc2ccccc2)nc2ccccc21
5. N=C(N)NCCC[C@H](NC(=O)OCc1ccccc1)C(=O)c1nc2ccccc2s1
6. N#C[C@H](CCCNC(=N)N)NC(=O)OCc1ccccc1

2.6
3.4
3
7.1
8
50.2

Value sought for every listed molecule: IC50.
1. N=C(N)NCCC[C@H](NC(=O)OCc1ccccc1)C(=O)c1nccs1
2. N#CCN(CCCCn1ccnc1)C(=O)OCc1ccccc1
3. N#CCN(CCCCN1CCCC1)C(=O)OCc1ccccc1
4. N#CCN(CCCCN1CCN(C(c2ccc(F)cc2)c2ccc(F)cc2)CC1)C(=O)OCc1ccccc1
5. N#C[C@H](Cc1ccc(NC(=N)N)cc1)NC(=O)OCc1ccccc1

1: 24.7; 2: 17.2; 3: 20.5; 4: 7.6; 5: 25.4

###

- Tested on: Trypanosoma brucei brucei
- test: Antiparasitic activity against Trypanosoma brucei brucei bloodstream form
- Type: functional, organism-based
measured.endpoint: pIC50
One number for each entry, as −log10 of the molar value.

The examples below pair each entry with its known result.
N#C[C@H](Cc1ccc(N)cc1)NC(=O)OCc1ccccc1 : 4.52
N#CCN(CCCCN1CCN(C(c2ccc(F)cc2)c2ccc(F)cc2)CC1)C(=O)OCc1ccccc1 : 5.68
Cn1c(C(=O)[C@H](CCCNC(=N)N)NC(=O)OCc2ccccc2)nc2ccccc21 : 4.49

Need pIC50 for each of these compounds.
1. N=C(N)NCCC[C@@H](/C=C/S(=O)(=O)c1ccccc1)NC(=O)OCc1ccccc1
2. NCCCC[C@H](NC(=O)OCc1ccccc1)C(=O)c1nc2ccccc2s1

1: 4.34; 2: 4.97

Observed pIC50, Trypanosoma brucei brucei, CC(C)CC(NC(=O)OCc1ccccc1)C(=O)N[C@@H](CCCNC(=N)N)C(=O)c1nc2ccccc2s1 (stereo partly drawn) : 5.24

###

I'd appreciate it if you could supply pIC50 values for the items below.
- Test system: Trypanosoma brucei brucei
- test: Antiparasitic activity against Trypanosoma brucei brucei bloodstream form
- Type: functional, organism-based
Answers are plain numbers, as −log10 of the molar value.

The cases that follow already have their pIC50 on record.
N#CCN(CCCCN1CCN(c2ccc(F)cc2)CC1)C(=O)OCc1ccccc1 : 4.65
NC(N)=NCCCC[C@H](NC(=O)OCc1ccccc1)C(=O)c1nc2ccccc2s1 : 4.94
N#CCN(C(=O)OCc1ccccc1)C1CCNCC1 : 4.49
N=C(N)NCCC[C@H](NC(=O)OCc1ccccc1)C(=O)c1nc2ccccc2s1 : 4.48
CC(C)C(NC(=O)OCc1ccccc1)C(=O)N[C@@H](CCCNC(=N)N)C(=O)c1nc2ccccc2s1 (stereo partly specified) : 4.95

Could you now look at the following compound, please?
Quick note, pIC50 for N#CCN(CCCCN1CCCC1)C(=O)OCc1ccccc1 landed at 4.28

###

- Test system: MRC5
- test: Cytotoxicity against human MRC5 cells
- Type: cell-based
measured.endpoint: IC50

Guide cases for IC50, answers given:
N=C(N)NCCC[C@H](NC(=O)OCc1ccccc1)C(=O)c1ccccn1 : > 64 µM
N#CCN(CCCCn1ccnc1)C(=O)OCc1ccccc1 : > 64 µM
N=C(N)NCCC[C@H](NC(=O)OCc1ccccc1)C(=O)c1nc2ccccc2s1 : > 64 µM
N#C[C@H](Cc1ccc(N)cc1)NC(=O)OCc1ccccc1 : > 64 µM
N#CCN(CCCCO)C(=O)OCc1ccccc1 : > 64 µM

So for N#C[C@H](Cc1ccc(NC(=N)N)cc1)NC(=O)OCc1ccccc1 , the logged IC50 turned out to be > 64 µM

###

- Test system: Plasmodium falciparum
- test: Antiparasitic activity against Plasmodium falciparum ring stage and schizont
- Format: functional, organism-based
pIC50: −log10 of the molar value.
Assign pIC50 to each entry below.

N#CCN(CCCCO)C(=O)OCc1ccccc1 : < 4.19
N=C(N)NCCC[C@H](NC(=O)OCc1ccccc1)C(=O)c1ccccn1 : < 4.19

Shifting focus to the compound that follows.
Entry N#CCN(CCCCN1CCN(c2ccc(F)cc2)CC1)C(=O)OCc1ccccc1 under Plasmodium falciparum had pIC50 of < 4.19

###

Consider the following compounds; for each one, report its pIC50.
- Test system: Trypanosoma brucei brucei
- test: Antiparasitic activity against Trypanosoma brucei brucei bloodstream form
- Type: functional, organism-based
pIC50: −log10 of the molar value.

Would you please look over these solved cases?
N=C(N)NCCC[C@H](NC(=O)OCc1ccccc1)C(=O)c1nccs1 : < 4.19
N#CCN(CCCCO)C(=O)OCc1ccccc1 : < 4.19
N=C(N)NCCC[C@H](NC(=O)OCc1ccccc1)C(=O)c1ccccn1 : < 4.19
N#CCN(CCCCn1ccnc1)C(=O)OCc1ccccc1 : < 4.19

The compound identified as N#CCN(CCCCN1CCCCC1)C(=O)OCc1ccccc1 registered its pIC50 at < 4.19

Values from ChEMBL document CHEMBL1155398
